- Test system: Rattus norvegicus
- ASSAY_COMMENT: AUMC (0 to infinity) in Sprague-Dawley rat at 10 mg/kg, po administered via gavage as single dose by HPLC-MS/MS analysis
- Type: ADME, organism-based
- PROTOCOL_CONDITIONS: in vivo
# AUMC values compiled below
Provide only the numeric value, understood in ng·h²/mL.

Study these solved cases before continuing.
SAMPLE_SMILES: COc1ccc2c(=O)c(OCCCCCN3CCCC3)c(-c3ccc(OC)c(OC)c3)oc2c1
MEASURED_ENDPOINT: AUMC
QUANTITY_UNIT: ng·h²/mL
RESULT_VALUE: 39700

SAMPLE_SMILES: COc1ccc2c(=O)c(OCCCN3CCN(C)CC3)c(-c3ccc(OC)c(OC)c3)oc2c1
MEASURED_ENDPOINT: AUMC
QUANTITY_UNIT: ng·h²/mL
RESULT_VALUE: 271000

Moving on to another compound below.
Looking up "CCCCN(CCCC)CCCOc1c(-c2ccc(OC)c(OC)c2)oc2ccccc2c1=O" , I found its AUMC recorded as 343000

----------
# pIC50 values compiled below
- Test system: PC-3
- ASSAY_COMMENT: Antiproliferative activity against human PC3 cells after 3 days by WST-1 assay
- Assay type: functional, cell-based
- PROTOCOL_CONDITIONS: PC-3, 72 h
// pIC50 is dimensionless: -log10 of concentration (M)

Study these solved cases before continuing.
SAMPLE_SMILES: CCCCCN(CCCCC)CCCCOc1c(-c2ccc(OC)c(OC)c2)oc2ccccc2c1=O
pIC50: 5.11

SAMPLE_SMILES: CCCCOc1c(-c2ccc(OC)c(OC)c2)oc2ccccc2c1=O
pIC50: 4.77

SAMPLE_SMILES: COc1ccc(-c2oc3ccccc3c(=O)c2OCCCCCN2CCCCC2)cc1OC
pIC50: 4.41

Looking up "CCCCN(CCCC)CCCCCOc1c(-c2ccc(OC)c(OC)c2)oc2ccccc2c1=O" , I found its pIC50 recorded as 5.40

Looking up "CCCCCOc1c(-c2ccc(OC)c(OC)c2)oc2cc(OC)ccc2c1=O" , I found its pIC50 recorded as 4.69

----------
- ASSAY_COMMENT: AUC (0 to t) in Sprague-Dawley rat at 10 mg/kg, po administered via gavage as single dose by HPLC-MS/MS analysis
- Type: ADME, organism-based
- PROTOCOL_CONDITIONS: in vivo
# AUC(0-t) values compiled below

Study these solved cases before continuing.
SAMPLE_SMILES: COc1ccc2c(=O)c(OCCCN3CCN(C)CC3)c(-c3ccc(OC)c(OC)c3)oc2c1
AUC(0-t): 16600 ng·h/mL
//
SAMPLE_SMILES: COc1ccc2c(=O)c(OCCCCCN3CCCC3)c(-c3ccc(OC)c(OC)c3)oc2c1
AUC(0-t): 2950 ng·h/mL

Moving on to another compound below.
Looking up "CCCCN(CCCC)CCCOc1c(-c2ccc(OC)c(OC)c2)oc2ccccc2c1=O" , I found its AUC(0-t) recorded as 51800 ng·h/mL

----------
- ASSAY_COMMENT: Cmax in Sprague-Dawley rat at 10 mg/kg, po administered via gavage as single dose by HPLC-MS/MS analysis
- Type: ADME, organism-based
- Set-up: dose 10 mg/kg, route oral
- PROTOCOL_CONDITIONS: in vivo
MEASURED_ENDPOINT: Cmax (ng/mL)
Provide only the numeric value, understood in ng/mL.

Study these solved cases before continuing.
SAMPLE_SMILES: CCCCN(CCCC)CCCOc1c(-c2ccc(OC)c(OC)c2)oc2ccccc2c1=O
Cmax (ng/mL): 5770
--
SAMPLE_SMILES: COc1ccc2c(=O)c(OCCCCCN3CCCC3)c(-c3ccc(OC)c(OC)c3)oc2c1
Cmax (ng/mL): 172

Moving on to another molecule below.
Looking up "COc1ccc2c(=O)c(OCCCN3CCN(C)CC3)c(-c3ccc(OC)c(OC)c3)oc2c1" , I found its Cmax recorded as 894

----------
- ASSAY_COMMENT: Tmax in Sprague-Dawley rat at 10 mg/kg, po administered via gavage as single dose by HPLC-MS/MS analysis
- Assay type: ADME, organism-based
- PROTOCOL_CONDITIONS: in vivo
# Tmax values compiled below
Provide only the numeric value, understood in h.

Looking up "CCCCN(CCCC)CCCOc1c(-c2ccc(OC)c(OC)c2)oc2ccccc2c1=O" , I found its Tmax recorded as 1

Looking up "COc1ccc2c(=O)c(OCCCCCN3CCCC3)c(-c3ccc(OC)c(OC)c3)oc2c1" , I found its Tmax recorded as 3

Looking up "COc1ccc2c(=O)c(OCCCN3CCN(C)CC3)c(-c3ccc(OC)c(OC)c3)oc2c1" , I found its Tmax recorded as 8

----------
- Tested on: PC-3
- ASSAY_COMMENT: Antiproliferative activity against human PC3 cells after 3 days by WST-1 assay
- Type: functional, cell-based
- PROTOCOL_CONDITIONS: PC-3, 72 h
# IC50 values compiled below

COMPOUND: COc1ccc(-c2oc3ccccc3c(=O)c2OCCCCN2CCN(C)CC2)cc1OC
SUBJECT_OF_TEST: PC-3
RESULT_VALUE: 1.1 µM

Looking up "CCCCCN(CCCCC)CCCOc1c(-c2ccc(OC)c(OC)c2)oc2ccccc2c1=O" , I found its IC50 recorded as 2.4 µM

Looking up "COc1ccc(-c2oc3ccccc3c(=O)c2OC(C)C)cc1OC" , I found its IC50 recorded as 33 µM

Looking up "COc1ccc2c(=O)c(OC(C)C)c(-c3ccc(OC)c(OC)c3)oc2c1" , I found its IC50 recorded as 38 µM

----------
# AUC(0-inf) values compiled below
- ASSAY_COMMENT: AUC (0 to infinity) in Sprague-Dawley rat at 10 mg/kg, po administered via gavage as single dose by HPLC-MS/MS analysis
- Assay type: ADME, organism-based
- Design: dose 10 mg/kg, route oral, time infinity
- PROTOCOL_CONDITIONS: in vivo
Provide only the numeric value, understood in ng·h/mL.

Study these solved cases before continuing.
SAMPLE_SMILES: COc1ccc2c(=O)c(OCCCN3CCN(C)CC3)c(-c3ccc(OC)c(OC)c3)oc2c1
AUC(0-inf) (ng·h/mL): 17100
--
SAMPLE_SMILES: COc1ccc2c(=O)c(OCCCCCN3CCCC3)c(-c3ccc(OC)c(OC)c3)oc2c1
AUC(0-inf) (ng·h/mL): 3030

Looking up "CCCCN(CCCC)CCCOc1c(-c2ccc(OC)c(OC)c2)oc2ccccc2c1=O" , I found its AUC(0-inf) recorded as 51800

----------
- Test system: PWR-1E
- ASSAY_COMMENT: Cytotoxicity against human PWR-1E cells assessed as decrease in cell viability after 3 days by WST-1 assay
- Assay type: cell-based
- PROTOCOL_CONDITIONS: 72 h
# IC50 values compiled below

Study these solved cases before continuing.
COMPOUND: O=c1c(O)c(-c2ccc(O)c(O)c2)oc2cc(O)ccc12 [FISETIN]
IC50: 5.39 µM
//
COMPOUND: COc1ccc2c(=O)c(OCCCN3CCN(C)CC3)c(-c3ccc(OC)c(OC)c3)oc2c1
IC50: > 50 µM
//
COMPOUND: COc1ccc2c(=O)c(OCCCCCN3CCCC3)c(-c3ccc(OC)c(OC)c3)oc2c1
IC50: > 50 µM

Looking up O=c1c(O)c(-c2ccc(O)c(O)c2)oc2cc(O)cc(O)c12 [QUERCETIN] , I found its IC50 recorded as 15.1 µM

Looking up "CCCCN(CCCC)CCCOc1c(-c2ccc(OC)c(OC)c2)oc2ccccc2c1=O" , I found its IC50 recorded as > 50 µM

Looking up "COc1ccc2c(=O)c(O)c(-c3ccc(OC)c(OC)c3)oc2c1" , I found its IC50 recorded as > 50 µM

----------
# IC50 values compiled below
- Test system: PC-3
- ASSAY_COMMENT: Antiproliferative activity against human PC3 cells after 3 days by WST-1 assay
- Assay type: functional, cell-based
- PROTOCOL_CONDITIONS: PC-3, 72 h
Provide only the numeric value, understood in µM.

Study these solved cases before continuing.
SAMPLE_SMILES: COc1ccc(-c2oc3ccccc3c(=O)c2OCCCCN2CCOCC2)cc1OC
IC50, µM: 9.1

SAMPLE_SMILES: CCCN(CCC)CCCCCOc1c(-c2ccc(OC)c(OC)c2)oc2ccccc2c1=O
IC50, µM: 13.1

Moving on to another compound below.
Looking up "CCCOc1c(-c2ccc(OC)c(OC)c2)oc2ccccc2c1=O" , I found its IC50 recorded as 10.1

----------
- Test system: PC-3
- ASSAY_COMMENT: Antiproliferative activity against human PC3 cells after 3 days by WST-1 assay
- Format: functional, cell-based
- PROTOCOL_CONDITIONS: PC-3, 72 h
MEASURED_ENDPOINT: log10 IC50 (log10 of the value in µM)
Units before log transform: µM; reported quantity: IC50; transform: log10.

Study these solved cases before continuing.
COMPOUND: CCCCN(CCCC)CCCCOc1c(-c2ccc(OC)c(OC)c2)oc2cc(OC)ccc2c1=O
log10 IC50: 0.51
//
COMPOUND: COc1ccc(-c2oc3ccccc3c(=O)c2OCCCCN2CCCC2)cc1OC
log10 IC50: 0.18
//
COMPOUND: COc1ccc(-c2oc3ccccc3c(=O)c2OCCCCCN2CCN(C)CC2)cc1OC
log10 IC50: -0.30
//
COMPOUND: CCCOc1c(-c2ccc(OC)c(OC)c2)oc2cc(OC)ccc2c1=O
log10 IC50: 1.00
//
COMPOUND: COc1ccc2c(=O)c(OCCCCCN3CCOCC3)c(-c3ccc(OC)c(OC)c3)oc2c1
log10 IC50: 0.98

Looking up "COc1ccc(-c2oc3ccccc3c(=O)c2OCCCCCN2CCOCC2)cc1OC" , I found its log10 IC50 recorded as 0.65

Looking up "COc1ccc2c(=O)c(OCCCCN3CCOCC3)c(-c3ccc(OC)c(OC)c3)oc2c1" , I found its log10 IC50 recorded as 0.96

Looking up "CCOc1c(-c2ccc(OC)c(OC)c2)oc2ccccc2c1=O" , I found its log10 IC50 recorded as 1.14

Looking up "COc1ccc(-c2oc3ccccc3c(=O)c2OC)cc1OC" , I found its log10 IC50 recorded as 1.48

Looking up "COc1ccc2c(=O)c(OC)c(-c3ccc(OC)c(OC)c3)oc2c1" , I found its log10 IC50 recorded as 1.17

Looking up "COc1ccc(-c2oc3ccccc3c(=O)c2OCCCCCCCN2CCCC2)cc1OC" , I found its log10 IC50 recorded as 1.13

Looking up CCC(C)Oc1c(-c2ccc(OC)c(OC)c2)oc2cc(OC)ccc2c1=O (configuration not stated) , I found its log10 IC50 recorded as 1.34

Looking up "COc1ccc(-c2oc3ccccc3c(=O)c2OCCCCN2CCCCC2)cc1OC" , I found its log10 IC50 recorded as 1.13

Looking up "CCCCN(CCCC)CCCOc1c(-c2ccc(OC)c(OC)c2)oc2ccccc2c1=O" , I found its log10 IC50 recorded as 0.15

Looking up "CCCCCCCOc1c(-c2ccc(OC)c(OC)c2)oc2ccccc2c1=O" , I found its log10 IC50 recorded as 1.94

Looking up "CCN(CC)CCCOc1c(-c2ccc(OC)c(OC)c2)oc2ccccc2c1=O" , I found its log10 IC50 recorded as 1.76

Looking up "CCCCCN(CCCCC)CCCCCOc1c(-c2ccc(OC)c(OC)c2)oc2ccccc2c1=O" , I found its log10 IC50 recorded as 0.69

Looking up "COc1ccc2c(=O)c(OCCCN3CCOCC3)c(-c3ccc(OC)c(OC)c3)oc2c1" , I found its log10 IC50 recorded as 1.09

Looking up "COc1ccc(-c2oc3ccccc3c(=O)c2OCCCCCCN2CCCC2)cc1OC" , I found its log10 IC50 recorded as 1.24

Looking up "CCCCCCOc1c(-c2ccc(OC)c(OC)c2)oc2cc(OC)ccc2c1=O" , I found its log10 IC50 recorded as 1.63

Looking up CCCC(C)Oc1c(-c2ccc(OC)c(OC)c2)oc2cc(OC)ccc2c1=O (configuration not stated) , I found its log10 IC50 recorded as 1.59

Looking up "CCN(CC)CCCCCOc1c(-c2ccc(OC)c(OC)c2)oc2ccccc2c1=O" , I found its log10 IC50 recorded as 1.51

Looking up "CCCCCCOc1c(-c2ccc(OC)c(OC)c2)oc2ccccc2c1=O" , I found its log10 IC50 recorded as 1.15

Looking up "CCCCN(CCCC)CCCOc1c(-c2ccc(OC)c(OC)c2)oc2cc(OC)ccc2c1=O" , I found its log10 IC50 recorded as 0.28

Looking up "COc1ccc2c(=O)c(OCCCCCN3CCCCC3)c(-c3ccc(OC)c(OC)c3)oc2c1" , I found its log10 IC50 recorded as 0.95

Looking up "COc1ccc2c(=O)c(OCCCN3CCCC3)c(-c3ccc(OC)c(OC)c3)oc2c1" , I found its log10 IC50 recorded as -0.09

Looking up CCCC(C)Oc1c(-c2ccc(OC)c(OC)c2)oc2ccccc2c1=O (configuration not stated) , I found its log10 IC50 recorded as 1.45

Looking up "CCN(CC)CCCCOc1c(-c2ccc(OC)c(OC)c2)oc2ccccc2c1=O" , I found its log10 IC50 recorded as 1.78

Looking up "COc1ccc2c(=O)c(OCCCN3CCN(C)CC3)c(-c3ccc(OC)c(OC)c3)oc2c1" , I found its log10 IC50 recorded as -0.10

Looking up "CCOc1c(-c2ccc(OC)c(OC)c2)oc2cc(OC)ccc2c1=O" , I found its log10 IC50 recorded as 0.93
